Assay: Partition coefficient (logP) (HPLC)
Type: physicochemical
Conditions: octanol/water
Label rule, in plain words: logP of 5 and up is 1 (yes), under 5 is 0 (no).

[[record]]
givensmiles = "COc1cccc(CN2C(=O)N(Cc3cccc(C(=O)Nc4cnccn4)c3)[C@H](Cc3ccccc3)[C@H](O)[C@@H](O)[C@H]2Cc2ccccc2)c1"
grouplabel = "0 (no)"

[[record]]
givensmiles = "Cc1ccc(NC(=O)c2cccc(CN3C(=O)N(Cc4cccc(N)c4)[C@H](Cc4ccccc4)[C@H](O)[C@@H](O)[C@H]3Cc3ccccc3)c2)nc1"
grouplabel = "0 (no)"

[[record]]
givensmiles = "COc1cc(CN2C(=O)N(Cc3cccc(C(=O)Nc4cccc(C)n4)c3)[C@H](Cc3ccccc3)[C@H](O)[C@@H](O)[C@H]2Cc2ccccc2)cc(OC)c1"
grouplabel = "1 (yes)"

[[record]]
givensmiles = "COc1cccc(CN2C(=O)N(Cc3cccc(C(=O)Nc4cccc(C)n4)c3)[C@H](Cc3ccccc3)[C@H](O)[C@@H](O)[C@H]2Cc2ccccc2)c1"
grouplabel = "1 (yes)"


Kindly consider the entry below.
Task: Confirm if logP reported for the compound `N#CCNC(=O)c1cccc(CN2C(=O)N(Cc3cccc(C(=O)NCC(=O)O)c3)[C@H](Cc3ccccc3)[C@H](O)[C@@H](O)[C@H]2Cc2ccccc2)c1` is 5 or above.
Result: 0 (no)
